Sourced from patent US11214803B2

Tested on: Yap1 mRNA
TEST_DESCRIPTION: Dose-dependent inhibition of human Yap1 in SNU-449 cells (Example 9, RTS36584)
Assay type: cell-based
ASSAY_CONTEXT: 31.3 nM, free uptake, approximately 48 hours
Strand notation (5' to 3'): a small letter for the sugar, then the base; units joined by * are phosphorothioate-linked, units joined directly phosphodiester-linked; [ ] holds rarer units or linkages, { } end groups; capitals alone tell only the bases. e = 2'-O-(2-methoxyethyl) (MOE); k = constrained ethyl (cEt); [5mC] = 5-methylcytosine; d = 2'-deoxy (DNA); m = 2'-O-methyl
Classification by % UTC (Yap1 mRNA) follows these ranges: low bin (below 60 % UTC), mid bin (60 % UTC to below 70 % UTC), high bin (70 % UTC or more)

>  <SUBSTANCE>
1198624 (kA*k[5mC]*kT*dA*dA*dG*dT*dA*dA*dG*dG*dT*kT*kT*k[5mC]*e[5mC]; antisense) [compound 1198624]

>  <ASSIGNED_LABEL>
mid bin

$$$$
>  <SUBSTANCE>
1198352 (kT*kG*kT*dA*dT*dG*dT*d[5mC]*dA*dG*dA*dA*kG*eA*kG*eT; antisense) [compound 1198352]

>  <ASSIGNED_LABEL>
low bin

$$$$
>  <SUBSTANCE>
1198382 (kT*dT*dA*dG*dA*dG*dT*dA*dT*dG*dT*kG*eG*k[5mC]*eA*kA; antisense) [compound 1198382]

>  <ASSIGNED_LABEL>
high bin

$$$$
>  <SUBSTANCE>
1198501 (kG*kA*dT*dT*dT*dA*dG*dG*dA*dT*dG*e[5mC]*kA*eT*kG*eG; antisense) [compound 1198501]

>  <ASSIGNED_LABEL>
mid bin

$$$$
>  <SUBSTANCE>
1198799 (k[5mC]*eT*kA*dA*dG*dT*dA*dA*dG*dG*dT*dT*eT*e[5mC]*k[5mC]*k[5mC]; antisense) [compound 1198799]

>  <ASSIGNED_LABEL>
mid bin

$$$$
>  <SUBSTANCE>
1198457 (kA*kT*dT*dG*dT*d[5mC]*dT*d[5mC]*dA*dT*dG*e[5mC]*k[5mC]*eT*kT*eA; antisense) [compound 1198457]

>  <ASSIGNED_LABEL>
high bin

$$$$
>  <SUBSTANCE>
1200785 (kA*kT*kT*dG*dT*mC*dT*d[5mC]*dA*dT*dG*d[5mC]*d[5mC]*kT*kT*kA; antisense) [compound 1200785]

>  <ASSIGNED_LABEL>
high bin

$$$$
>  <SUBSTANCE>
1198525 (kA*kG*dT*dG*dT*dA*dT*dG*dT*d[5mC]*dA*eG*kA*eA*kG*eA) [compound 1198525]

>  <ASSIGNED_LABEL>
mid bin

$$$$
>  <SUBSTANCE>
1198724 (kA*eG*kA*dG*dT*dA*dT*dG*dT*dG*dG*d[5mC]*eA*eA*kT*kA; antisense) [compound 1198724]

>  <ASSIGNED_LABEL>
low bin

$$$$
>  <SUBSTANCE>
1200798 (kT*kA*kT*dT*dA*mG*dA*dG*dT*dA*dT*dG*dT*kG*kG*k[5mC]; antisense) [compound 1200798]

>  <ASSIGNED_LABEL>
high bin

$$$$
>  <SUBSTANCE>
1198243 (kG*kA*dT*dT*dT*dA*dG*dG*dA*dT*dG*e[5mC]*eA*eT*kG*kG; antisense) [compound 1198243]

>  <ASSIGNED_LABEL>
low bin

$$$$
>  <SUBSTANCE>
1198409 (kA*dG*dT*dG*d[5mC]*dT*dT*dT*dG*dG*dA*kA*eG*kA*eT*k[5mC]; antisense) [compound 1198409]

>  <ASSIGNED_LABEL>
high bin

$$$$
>  <SUBSTANCE>
1198696 (kT*kG*dT*dA*dT*dG*dT*d[5mC]*dA*dG*dA*dA*kG*eA*kG*eT) [compound 1198696]

>  <ASSIGNED_LABEL>
low bin

$$$$
>  <SUBSTANCE>
1198347 (kG*kT*kA*dA*dT*dA*dT*dT*dG*d[5mC]*dA*dA*kT*e[5mC]*kT*eG) [compound 1198347]

>  <ASSIGNED_LABEL>
mid bin

$$$$
>  <SUBSTANCE>
1198492 (kG*k[5mC]*dT*dT*dT*dG*dG*dA*dA*dG*dA*eT*k[5mC]*eT*kG*eA; antisense) [compound 1198492]

>  <ASSIGNED_LABEL>
mid bin

$$$$
>  <SUBSTANCE>
1198440 (AAGTGTATGTCAGAAG; cEt, 2'-MOE, 5-methylcytosine, phosphorothioate modifications, further chemistry not given here) [compound 1198440]

>  <ASSIGNED_LABEL>
low bin

$$$$
>  <SUBSTANCE>
1198423 (TCTTATATGGTTTTGT; all C 5-methyl, all phosphorothioate, sugars by position not given here; cEt/MOE mixed gapmer, notation at position 4 garbled) [compound 1198423]

>  <ASSIGNED_LABEL>
low bin

$$$$
>  <SUBSTANCE>
1198470 (kT*kA*dT*dT*dA*dG*dA*dG*dT*dA*dT*eG*kT*eG*kG*e[5mC]; antisense) [compound 1198470]

>  <ASSIGNED_LABEL>
high bin

$$$$
